These data points were gathered from paper PMC11931385.

Target: T1, Rb^P M546I (human, UniProt P06400 380-788, M546I)
T1 construct: also called variant 25
T1 sequence (looked up): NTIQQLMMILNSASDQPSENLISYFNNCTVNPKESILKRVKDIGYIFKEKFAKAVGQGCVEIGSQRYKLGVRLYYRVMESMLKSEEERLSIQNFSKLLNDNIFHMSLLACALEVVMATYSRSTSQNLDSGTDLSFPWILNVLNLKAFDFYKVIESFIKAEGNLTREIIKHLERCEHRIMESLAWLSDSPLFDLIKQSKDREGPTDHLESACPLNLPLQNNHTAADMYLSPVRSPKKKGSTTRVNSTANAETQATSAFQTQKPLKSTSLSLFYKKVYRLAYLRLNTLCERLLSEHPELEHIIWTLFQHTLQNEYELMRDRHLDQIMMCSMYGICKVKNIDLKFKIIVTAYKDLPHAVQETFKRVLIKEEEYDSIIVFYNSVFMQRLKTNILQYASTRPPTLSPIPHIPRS
Assay: fluorescence polarisation; 37 °C, after the 25 °C reading ramped over 7 min to 37 °C and 2 min incubation; unlabeled Rb^P against 1.5 nM TMR-E2F1^TD or 7.5 nM TMR-E7^LxCxE; 25 mM Tris pH 8.0, 200 mM NaCl, 1 mM DTT, 0.1% Tween-20; apparent Kd
Details: both partners purified
No end group written: not given here. TMR = tetramethyl rhodamine dye
Reported metric: Kd (nM)

Binder	Readout unit	Observed value
DLYCYEQLN (also: TMR label, position not given here, source: synthetic peptide, bought: GenScript) [TMR-E7^LxCxE, LxCxE peptide of the E7 oncoprotein from HPV]	nM	13
{TMR}-GEGIRDLFDCDFGDLTPLD (also called E2F^TD; source: synthetic peptide, bought: GenScript) [TMR-E2F1^TD, peptide of the E2F1 transactivation domain]	nM	21
